Tested on: 653999-131-R-J2-PDC complex spheroids, growth % test/control
Assay: Anticancer human tumor 653999-131-R-J2-PDC patient-derived lung adenocarcinoma cell line growth inhibition [AhR]
Conditions: curve of first compound; second compound 10 µM
Measurement name: IC50

Examples with their reported IC50 follow.
>  <Compound>
NS(=O)(=O)OCC1CC(n2ccc3c(NC4CCc5ccccc54)ncnc32)CC1O (centres undefined) + Cc1ccccc1N=Nc1ccc(NC(=O)c2ccnn2C)c(C)c1

>  <System>
653999-131-R-J2-PDC complex spheroids, growth % test/control

>  <Test result>
> 10 µM

$$$$
>  <Compound>
NS(=O)(=O)OCC1CC(n2ccc3c(NC4CCc5ccccc54)ncnc32)CC1O (centres undefined) + Cc1cncc(-c2nc(NCCc3c[nH]c4ccccc34)c3ncn(C(C)C)c3n2)c1

>  <System>
653999-131-R-J2-PDC complex spheroids, growth % test/control

>  <Test result>
< 0.0316 µM

$$$$

Bench note, 653999-131-R-J2-PDC complex spheroids, growth % test/control: CC1COCCN1c1cc(C2(S(C)(=N)=O)CC2)nc(-c2ccnc3[nH]ccc23)n1 (centres undefined) + Cc1ccccc1N=Nc1ccc(NC(=O)c2ccnn2C)c(C)c1 , IC50 reads 6.75 µM

Bench note, 653999-131-R-J2-PDC complex spheroids, growth % test/control: Nc1ncn(C2CC(O)C(CO)S2)c(=O)n1 (centres undefined) + Cc1ccccc1N=Nc1ccc(NC(=O)c2ccnn2C)c(C)c1 , IC50 reads > 0.3 µM

###

System: 653999-131-R-J2-PDC complex spheroids, growth % test/control
Assay: Anticancer human tumor 653999-131-R-J2-PDC cell line growth inhibition [AhR];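 note: spheroids exposed to agents for seven days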;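 for viability, T/C: 100% = DMSO vehicle control viability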
Settings: second compound 10 µM; first compound 0.316 µM; stronger effect = lower value
Measurement name: viability, T/C (%)
Reply numerically in %, unit not repeated.

Examples with their reported viability, T/C follow.
>  <Compound>
Nc1ccn(C2OC(CO)C(O)C2(F)F)c(=O)n1 (stereo not drawn) + Cc1ccccc1N=Nc1ccc(NC(=O)c2ccnn2C)c(C)c1

>  <viability, T/C / %>
65.2

$$$$
>  <Compound>
CC1(C)CCC(CN2CCN(c3ccc(C(=O)NS(=O)(=O)c4ccc(NCC5CCOCC5)c([N+](=O)[O-])c4)c(Oc4cnc5[nH]ccc5c4)c3)CC2)=C(c2ccc(Cl)cc2)C1 + Cc1ccccc1N=Nc1ccc(NC(=O)c2ccnn2C)c(C)c1

>  <viability, T/C / %>
83.9

$$$$
>  <Compound>
NS(=O)(=O)OCC1CC(n2ccc3c(NC4CCc5ccccc54)ncnc32)CC1O (stereo not drawn) + Cc1ccccc1N=Nc1ccc(NC(=O)c2ccnn2C)c(C)c1

>  <viability, T/C / %>
115

$$$$

// viability, T/C lookup, compound = NS(=O)(=O)OCC1CC(n2ccc3c(NC4CCc5ccccc54)ncnc32)CC1O (stereo not drawn) + Cc1cncc(-c2nc(NCCc3c[nH]c4ccccc34)c3ncn(C(C)C)c3n2)c1 , result: 39.4

// viability, T/C lookup, compound = Nc1ccccc1NC(=O)c1ccc(CNC(=O)OCc2cccnc2)cc1 + Cc1cncc(-c2nc(NCCc3c[nH]c4ccccc34)c3ncn(C(C)C)c3n2)c1 , result: 45.3

// viability, T/C lookup, compound = COc1cc(Nc2ncc3c(n2)-c2ccc(Cl)cc2C(c2c(F)cccc2OC)=NC3)ccc1C(=O)O + Cc1cncc(-c2nc(NCCc3c[nH]c4ccccc34)c3ncn(C(C)C)c3n2)c1 , result: 57.9

###

System: 653999-131-R-J2-PDC complex spheroids, growth % test/control
Experiment: Anticancer human tumor 653999-131-R-J2-PDC cell line growth inhibition [AhR];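 note: spheroids exposed to agents for seven days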;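 for viability, T/C: 100% = DMSO vehicle control viability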
Conditions: second compound 3.16 µM; first compound 0.316 µM; stronger effect = lower value
Measurement name: viability, T/C (%)
Reply numerically in %, unit not repeated.

Examples with their reported viability, T/C follow.
>  <Molecule>
Nc1ncn(C2CC(O)C(CO)O2)c(=O)n1 (configuration not stated) + CC(CO)NC(=O)c1cc(-c2ccc(Cl)cc2)nn(-c2cnn(C)c2)c1=O

>  <viability, T/C, %>
90.9

$$$$
>  <Molecule>
NS(=O)(=O)OCC1CC(n2ccc3c(NC4CCc5ccccc54)ncnc32)CC1O (configuration not stated) + Cc1cncc(-c2nc(NCCc3c[nH]c4ccccc34)c3ncn(C(C)C)c3n2)c1

>  <viability, T/C, %>
90.5

$$$$
>  <Molecule>
Nc1ccccc1NC(=O)c1ccc(CNC(=O)OCc2cccnc2)cc1 + Cc1ccccc1N=Nc1ccc(NC(=O)c2ccnn2C)c(C)c1

>  <viability, T/C, %>
70.2

$$$$
>  <Molecule>
O=C(C=Cc1cccc(S(=O)(=O)Nc2ccccc2)c1)NO + Cc1ccccc1N=Nc1ccc(NC(=O)c2ccnn2C)c(C)c1

>  <viability, T/C, %>
99

$$$$
>  <Molecule>
COc1cccc2c1C(=O)c1c(O)c3c(c(O)c1C2=O)CC(O)(C(=O)CO)CC3OC1CC(N)C(O)C(C)O1 (configuration not stated) + CC(CO)NC(=O)c1cc(-c2ccc(Cl)cc2)nn(-c2cnn(C)c2)c1=O

>  <viability, T/C, %>
42.3

$$$$

// viability, T/C lookup, molecule = CC1(C)CCC(CN2CCN(c3ccc(C(=O)NS(=O)(=O)c4ccc(NCC5CCOCC5)c([N+](=O)[O-])c4)c(Oc4cnc5[nH]ccc5c4)c3)CC2)=C(c2ccc(Cl)cc2)C1 + CC(CO)NC(=O)c1cc(-c2ccc(Cl)cc2)nn(-c2cnn(C)c2)c1=O , result: 106

// viability, T/C lookup, molecule = COc1cc(Nc2ncc3c(n2)-c2ccc(Cl)cc2C(c2c(F)cccc2OC)=NC3)ccc1C(=O)O + Cc1cncc(-c2nc(NCCc3c[nH]c4ccccc34)c3ncn(C(C)C)c3n2)c1 , result: 78.6

###

Test system: 653999-131-R-J2-PDC complex spheroids, growth % test/control
Test: Anticancer human tumor 653999-131-R-J2-PDC cell line growth inhibition [AhR];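 note: spheroids exposed to agents for seven days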;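 for viability, T/C: 100% = DMSO vehicle control viability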
Details: second compound 0.1 µM; first compound 10 µM; stronger effect = lower value
Items are presented alongside their recorded viability, T/C.
Reply numerically in %, unit not repeated.

Examples with their reported viability, T/C follow.
>  <Compound>
CC1(C)CCC(CN2CCN(c3ccc(C(=O)NS(=O)(=O)c4ccc(NCC5CCOCC5)c([N+](=O)[O-])c4)c(Oc4cnc5[nH]ccc5c4)c3)CC2)=C(c2ccc(Cl)cc2)C1 + Cc1ccccc1N=Nc1ccc(NC(=O)c2ccnn2C)c(C)c1

>  <viability, T/C (%)>
68.7

$$$$
>  <Compound>
COc1cccc2c1C(=O)c1c(O)c3c(c(O)c1C2=O)CC(O)(C(=O)CO)CC3OC1CC(N)C(O)C(C)O1 (configuration not stated) + Cc1ccccc1N=Nc1ccc(NC(=O)c2ccnn2C)c(C)c1

>  <viability, T/C (%)>
16.6

$$$$
>  <Compound>
CC1COCCN1c1cc(C2(S(C)(=N)=O)CC2)nc(-c2ccnc3[nH]ccc23)n1 (configuration not stated) + Cc1cncc(-c2nc(NCCc3c[nH]c4ccccc34)c3ncn(C(C)C)c3n2)c1

>  <viability, T/C (%)>
43.7

$$$$
>  <Compound>
COc1cc(Nc2ncc3c(n2)-c2ccc(Cl)cc2C(c2c(F)cccc2OC)=NC3)ccc1C(=O)O + Cc1cncc(-c2nc(NCCc3c[nH]c4ccccc34)c3ncn(C(C)C)c3n2)c1

>  <viability, T/C (%)>
55.5

$$$$
>  <Compound>
COc1ccc([C@@H](O)c2cc(-c3ncnc4cc(N5CCOCC5)ccc34)c(F)cc2Cl)nn1 + Cc1cncc(-c2nc(NCCc3c[nH]c4ccccc34)c3ncn(C(C)C)c3n2)c1

>  <viability, T/C (%)>
46.7

$$$$
>  <Compound>
NS(=O)(=O)OCC1CC(n2ccc3c(NC4CCc5ccccc54)ncnc32)CC1O (configuration not stated) + Cc1ccccc1N=Nc1ccc(NC(=O)c2ccnn2C)c(C)c1

>  <viability, T/C (%)>
64.7

$$$$
>  <Compound>
COc1cc(C2c3cc4c(cc3C(OC3OC5COC(C)OC5C(O)C3O)C3COC(=O)C23)OCO4)cc(OC)c1O (configuration not stated) + CC(CO)NC(=O)c1cc(-c2ccc(Cl)cc2)nn(-c2cnn(C)c2)c1=O

>  <viability, T/C (%)>
28.9

$$$$
>  <Compound>
O=C(c1cc(Cc2n[nH]c(=O)c3ccccc23)ccc1F)N1CCN(C(=O)C2CC2)CC1 + Cc1cncc(-c2nc(NCCc3c[nH]c4ccccc34)c3ncn(C(C)C)c3n2)c1

>  <viability, T/C (%)>
79.3

$$$$
>  <Compound>
Nc1ccn(C2OC(CO)C(O)C2(F)F)c(=O)n1 (configuration not stated) + Cc1ccccc1N=Nc1ccc(NC(=O)c2ccnn2C)c(C)c1

>  <viability, T/C (%)>
34.2

$$$$
>  <Compound>
COc1cccc2c1C(=O)c1c(O)c3c(c(O)c1C2=O)CC(O)(C(=O)CO)CC3OC1CC(N)C(O)C(C)O1 (configuration not stated) + CC(CO)NC(=O)c1cc(-c2ccc(Cl)cc2)nn(-c2cnn(C)c2)c1=O

>  <viability, T/C (%)>
19.9

$$$$

// viability, T/C lookup, compound = Nc1ccccc1NC(=O)c1ccc(CNC(=O)OCc2cccnc2)cc1 + Cc1cncc(-c2nc(NCCc3c[nH]c4ccccc34)c3ncn(C(C)C)c3n2)c1 , result: 15.9

// viability, T/C lookup, compound = NS(=O)(=O)OCC1CC(n2ccc3c(NC4CCc5ccccc54)ncnc32)CC1O (configuration not stated) + Cc1cncc(-c2nc(NCCc3c[nH]c4ccccc34)c3ncn(C(C)C)c3n2)c1 , result: 49.8

Measured values drawn from PubChem BioAssay AID1919000 for this set.
